Biological target: mTor/FRAP1 (Homo sapiens (Human), UniProt P42345)
Test: Radioisotope filter binding assay
Conditions: read-out: IC50 Activity Levels Against Various PI3K and mTor Kinases: mTor/FRAP1
test_readout: IC50

Worked examples, 2 compounds total:
Nc1ncnc2c1c(C#Cc1ccccc1)nn2C[C@@H]1SSC[C@H]1O (relative stereo) | 1 to 10 µM
Nc1nc2cc(-c3nn(C[C@@H]4SSC[C@H]4OC(=O)c4ccccc4)c4ncnc(N)c34)ccc2o1 (relative stereo) | 0.005 to 0.099 µM

Q: Tell me the measured IC50 of Nc1ncnc2c1c(C#Cc1ccccc1)nn2CC1SSCC1OC(=O)c1ccccc1 (stereo not drawn) , please.
A: 1 to 10 µM

----------
In this section we review reported pIC50 values for a set of compounds.
Biological target: FYN (Homo sapiens (Human))
Experiment: Radiometric 33PanQinase assay (FlashPlate-based Protein Kinase Assay)
Format: biochemical
Conditions: at app. ATP Km, read-out: IC50 Activity Levels Against FYN Kinase: FYN
pIC50: −log10 of the molar value.

Nc1ncnc2c1c(-c1ccc(Oc3ccccc3)cc1)nn2C[C@H]1SSC[C@H]1O | 7.00 to 8.30

Please examine the following record next.
Q: Tell me the measured pIC50 of Nc1ncnc2c1c(-c1ccc(Oc3ccccc3)cc1)nn2C[C@H]1SSC[C@@H]1O , please.
A: 7.00 to 8.30

----------
Target: FYN isoform (b) (Homo sapiens (Human), UniProt P06241)
Sequence (P06241 other isoform, or with tags, fused parts or gaps): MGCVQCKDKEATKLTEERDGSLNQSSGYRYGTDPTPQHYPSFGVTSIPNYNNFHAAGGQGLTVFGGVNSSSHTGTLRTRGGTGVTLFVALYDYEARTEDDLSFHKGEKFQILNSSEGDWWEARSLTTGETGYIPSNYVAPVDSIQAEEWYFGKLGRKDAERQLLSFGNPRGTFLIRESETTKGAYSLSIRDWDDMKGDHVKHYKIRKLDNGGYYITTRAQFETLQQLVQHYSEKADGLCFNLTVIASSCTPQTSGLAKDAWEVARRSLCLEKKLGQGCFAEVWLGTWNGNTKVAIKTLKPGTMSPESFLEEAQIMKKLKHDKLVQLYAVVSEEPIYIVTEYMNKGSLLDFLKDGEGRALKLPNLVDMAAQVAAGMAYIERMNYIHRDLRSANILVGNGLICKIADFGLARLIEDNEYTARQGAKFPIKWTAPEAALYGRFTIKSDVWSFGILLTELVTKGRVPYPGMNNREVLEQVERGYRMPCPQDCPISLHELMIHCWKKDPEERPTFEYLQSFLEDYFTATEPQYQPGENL
Experiment: Kinase binding assay CaPBA
Conditions: read-out: IC50 Activity Levels Against FYN isoforms, YES1 and MEK5: FYN isoform (b)
pIC50: −log10 of the molar value.
In this section we review reported pIC50 values for a set of compounds.

Nc1ncnc2c1c(-c1ccc(Oc3ccccc3)cc1)nn2C[C@@H]1SSC[C@H]1O | 7.00 to 8.30

Q: Checklist item: pIC50 tested on FYN isoform (b) (Homo sapiens (Human), UniProt P06241), entry Nc1ncnc2c1c(-c1ccc(Oc3ccccc3)cc1)nn2C[C@H]1SSC[C@@H]1O , value?
A: 7.00 to 8.30

----------
Molecular target: UniProt P07947
Assay: Kinase binding assay CaPBA
Settings: read-out: IC50 Activity Levels Against FYN isoforms, YES1 and MEK5: YES1
pIC50: −log10 of the molar value.
test_readout: pIC50

Worked examples, 2 molecules total:
Nc1ncnc2c1c(-c1ccc(Oc3ccccc3)cc1)nn2C[C@H]1SSC[C@H]1O | > 8.30
Nc1ncnc2c1c(-c1ccc(Oc3ccccc3)cc1)nn2C[C@H]1SSC[C@@H]1O | > 8.30

Please examine the following record next.
Q: Tell me the measured pIC50 of Nc1ncnc2c1c(-c1ccc(Oc3ccccc3)cc1)nn2C[C@@H]1SSC[C@H]1O , please.
A: > 8.30

----------
Molecular target: MEK5 (Homo sapiens (Human))
Sequence (Q13163 whole entry): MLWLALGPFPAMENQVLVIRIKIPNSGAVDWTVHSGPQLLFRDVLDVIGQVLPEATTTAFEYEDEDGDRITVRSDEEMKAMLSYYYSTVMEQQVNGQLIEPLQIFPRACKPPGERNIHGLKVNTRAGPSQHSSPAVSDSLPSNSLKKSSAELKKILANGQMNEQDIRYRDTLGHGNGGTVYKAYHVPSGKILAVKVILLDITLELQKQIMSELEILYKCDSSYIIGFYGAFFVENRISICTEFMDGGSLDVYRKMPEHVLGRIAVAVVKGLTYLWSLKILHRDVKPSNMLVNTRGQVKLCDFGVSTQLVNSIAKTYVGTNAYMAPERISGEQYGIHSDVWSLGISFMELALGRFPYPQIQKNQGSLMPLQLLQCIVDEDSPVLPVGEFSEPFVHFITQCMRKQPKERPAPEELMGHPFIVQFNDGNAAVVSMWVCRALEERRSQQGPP
Assay: KINOMEscan competition binding assay (Kd)
Settings: Table 9, read-out: Kd Values Against Representative MEK5 Kinase: MEK5
In this section we review reported Kd values for a set of compounds.

Worked examples, 5 compounds total:
Nc1ncnc2c1c(-c1ccc(Cl)cc1)nn2C[C@@H]1SSC[C@H]1O (relative stereo) | < 5 nM
COc1ccc(-c2nn(CC3SSCC3O)c3ncnc(N)c23)cc1 (centres unmarked) | 5 to 99 nM
Nc1ncnc2c1c(-c1ccc(Oc3ccccc3)cc1)nn2C[C@@H]1SSC[C@H]1O | < 5 nM
Nc1ncnc2c1c(-c1ccccc1)nn2C[C@@H]1SSC[C@H]1O (relative stereo) | 5 to 99 nM
CO[C@@H]1CSS[C@H]1Cn1nc(-c2ccc(Oc3ccccc3)cc2)c2c(N)ncnc21 (relative stereo) | < 5 nM

Q: Tell me the measured Kd of CO[C@H]1CSS[C@H]1Cn1nc(-c2ccc(Oc3ccccc3)cc2)c2c(N)ncnc21 (relative stereo) , please.
A: < 5 nM

Q: Tell me the measured Kd of Nc1ncnc2c1c(-c1ccc(Oc3ccccc3)cc1)nn2C[C@@H]1SSC[C@@H]1OCc1ccccc1 (relative stereo) , please.
A: 5 to 99 nM

Q: Tell me the measured Kd of Nc1ncnc2c1c(-c1ccc(Oc3ccccc3)cc1)nn2C[C@@H]1SSC[C@H]1OCc1ccccc1 (relative stereo) , please.
A: 5 to 99 nM

----------
Target: BTK (Homo sapiens (Human))
Sequence (Q06187 whole entry): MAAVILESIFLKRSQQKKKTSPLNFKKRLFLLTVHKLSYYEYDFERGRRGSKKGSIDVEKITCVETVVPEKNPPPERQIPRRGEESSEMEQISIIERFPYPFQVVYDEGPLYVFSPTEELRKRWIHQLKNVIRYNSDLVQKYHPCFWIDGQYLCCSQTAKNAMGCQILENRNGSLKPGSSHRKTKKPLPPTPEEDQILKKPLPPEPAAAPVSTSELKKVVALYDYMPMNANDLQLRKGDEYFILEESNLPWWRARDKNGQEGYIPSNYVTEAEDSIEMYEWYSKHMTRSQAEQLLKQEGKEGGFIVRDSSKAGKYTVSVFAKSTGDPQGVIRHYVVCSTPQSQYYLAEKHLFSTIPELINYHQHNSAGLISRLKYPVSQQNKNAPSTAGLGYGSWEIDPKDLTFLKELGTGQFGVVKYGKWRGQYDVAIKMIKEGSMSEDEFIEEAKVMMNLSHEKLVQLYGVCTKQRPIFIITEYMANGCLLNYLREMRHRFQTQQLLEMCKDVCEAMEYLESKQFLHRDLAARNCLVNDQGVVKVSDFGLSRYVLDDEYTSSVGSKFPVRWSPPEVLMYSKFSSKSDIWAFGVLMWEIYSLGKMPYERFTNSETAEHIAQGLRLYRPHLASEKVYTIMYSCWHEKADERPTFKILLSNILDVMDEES
pKd: −log10 of the molar value.
test_readout: pKd

Q: Checklist item: pKd tested on BTK (Homo sapiens (Human)), entry CO[C@@H]1CSS[C@H]1Cn1nc(-c2ccc(Oc3ccccc3)cc2)c2c(N)ncnc21 (relative stereo) , value?
A: 7.00 to 8.30

----------
Biological target: BRAF (Homo sapiens (Human), UniProt P15056)
pKd: −log10 of the molar value.
test_readout: pKd

Q: Tell me the measured pKd of Nc1ncnc2c1c(-c1ccc(Oc3ccccc3)cc1)nn2C[C@@H]1SSC[C@H]1O (relative stereo) , please.
A: 5.00 to 6.00

----------
Molecular target: UniProt:P10721
Sequence (P10721 26-976): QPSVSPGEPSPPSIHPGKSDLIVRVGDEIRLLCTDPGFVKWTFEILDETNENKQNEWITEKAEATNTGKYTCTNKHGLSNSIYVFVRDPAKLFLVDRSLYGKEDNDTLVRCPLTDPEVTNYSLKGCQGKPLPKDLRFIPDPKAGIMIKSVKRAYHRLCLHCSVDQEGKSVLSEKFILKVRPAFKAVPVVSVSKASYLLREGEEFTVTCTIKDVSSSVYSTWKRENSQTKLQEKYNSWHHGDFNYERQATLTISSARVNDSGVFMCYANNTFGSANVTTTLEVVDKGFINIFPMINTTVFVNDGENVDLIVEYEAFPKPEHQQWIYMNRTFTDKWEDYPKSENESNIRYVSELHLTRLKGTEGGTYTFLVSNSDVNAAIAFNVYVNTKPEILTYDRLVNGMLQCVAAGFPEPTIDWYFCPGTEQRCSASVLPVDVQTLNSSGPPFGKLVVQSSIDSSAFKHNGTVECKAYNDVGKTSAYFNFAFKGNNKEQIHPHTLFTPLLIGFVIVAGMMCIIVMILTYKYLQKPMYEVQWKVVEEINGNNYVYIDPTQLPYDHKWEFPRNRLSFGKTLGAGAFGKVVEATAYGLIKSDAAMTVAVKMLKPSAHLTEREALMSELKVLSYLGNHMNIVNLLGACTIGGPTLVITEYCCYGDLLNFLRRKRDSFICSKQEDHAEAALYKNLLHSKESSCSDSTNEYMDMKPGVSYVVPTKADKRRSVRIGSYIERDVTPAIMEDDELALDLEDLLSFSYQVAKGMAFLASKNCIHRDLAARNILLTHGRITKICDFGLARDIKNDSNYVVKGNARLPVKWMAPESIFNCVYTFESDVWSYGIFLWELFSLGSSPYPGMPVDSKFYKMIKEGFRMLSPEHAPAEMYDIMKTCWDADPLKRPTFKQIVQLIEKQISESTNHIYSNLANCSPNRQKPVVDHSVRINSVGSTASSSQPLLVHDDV
test_readout: IC50

Q: Checklist item: IC50 tested on UniProt:P10721, entry Nc1ncnc2c1c(-c1ccc(Oc3ccccc3)cc1)nn2C[C@H]1SSC[C@H]1O , value?
A: 1 to 10 µM

----------
Target: FLT3 (Homo sapiens (Human))
test_readout: IC50

Q: Tell me the measured IC50 of Nc1ncnc2c1c(-c1ccc(Oc3ccccc3)cc1)nn2C[C@H]1SSC[C@H]1O [46 B.] , please.
A: 5 to 99 nM

----------
Target: FGR (Homo sapiens (Human), UniProt P09769)
Sequence (P09769 whole entry): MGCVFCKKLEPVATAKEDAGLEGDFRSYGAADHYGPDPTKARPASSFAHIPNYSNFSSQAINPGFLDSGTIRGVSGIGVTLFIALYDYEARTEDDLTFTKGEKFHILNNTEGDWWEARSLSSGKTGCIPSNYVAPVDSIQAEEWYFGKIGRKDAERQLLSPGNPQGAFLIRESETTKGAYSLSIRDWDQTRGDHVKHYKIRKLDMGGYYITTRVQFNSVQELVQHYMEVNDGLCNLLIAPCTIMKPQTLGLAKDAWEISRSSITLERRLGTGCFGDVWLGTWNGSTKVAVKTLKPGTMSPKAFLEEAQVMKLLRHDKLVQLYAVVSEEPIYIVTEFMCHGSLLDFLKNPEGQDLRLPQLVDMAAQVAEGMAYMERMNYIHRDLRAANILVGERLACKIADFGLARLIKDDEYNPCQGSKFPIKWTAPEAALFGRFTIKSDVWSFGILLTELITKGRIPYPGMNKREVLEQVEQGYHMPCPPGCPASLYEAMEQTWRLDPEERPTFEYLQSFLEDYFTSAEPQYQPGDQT
Test: Rabbit reticulocyte lysate assay (KinaseSeeker competition binding)
Conditions: read-out: IC50 Activity Levels Against SRC Family Kinases: FGR
pIC50: −log10 of the molar value.
test_readout: pIC50

Nc1ncnc2c1c(-c1ccc(Oc3ccccc3)cc1)nn2C[C@H]1SSC[C@H]1O | 6.00 to 7.00

Please examine the following record next.
Q: Checklist item: pIC50 tested on FGR (Homo sapiens (Human), UniProt P09769), entry Nc1ncnc2c1c(-c1ccc(Oc3ccccc3)cc1)nn2C[C@H]1SSC[C@@H]1O , value?
A: 6.00 to 7.00

----------
Target: YES1 (Homo sapiens (Human))
Sequence (P07947 whole entry): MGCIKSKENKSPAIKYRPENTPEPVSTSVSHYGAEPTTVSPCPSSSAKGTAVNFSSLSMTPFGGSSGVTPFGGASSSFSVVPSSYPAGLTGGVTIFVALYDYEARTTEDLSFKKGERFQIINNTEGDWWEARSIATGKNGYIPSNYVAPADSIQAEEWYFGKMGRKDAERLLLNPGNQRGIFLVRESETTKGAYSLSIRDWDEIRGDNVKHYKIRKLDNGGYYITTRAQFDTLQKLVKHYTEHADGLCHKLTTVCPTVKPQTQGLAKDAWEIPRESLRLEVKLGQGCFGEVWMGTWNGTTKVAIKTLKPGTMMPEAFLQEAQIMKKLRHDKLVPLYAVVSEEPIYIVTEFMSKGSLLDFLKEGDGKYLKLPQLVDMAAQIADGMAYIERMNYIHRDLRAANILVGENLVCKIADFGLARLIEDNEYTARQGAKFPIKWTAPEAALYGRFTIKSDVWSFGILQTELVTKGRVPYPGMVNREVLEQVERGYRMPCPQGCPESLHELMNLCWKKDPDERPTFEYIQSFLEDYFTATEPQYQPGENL
Assay: Radioisotope filter binding assay
Type: biochemical
Details: read-out: IC50 Activity Levels Against SRC Family Kinases: YES1
test_readout: IC50

Worked examples, 3 molecules total:
Nc1ncnc2c1c(-c1ccc(Oc3ccccc3)cc1)nn2C[C@@H]1SSC[C@@H]1O [46 A.] | < 5 nM
Nc1ncnc2c1c(-c1ccc(Oc3ccccc3)cc1)nn2C[C@@H]1SSC[C@H]1O [43 A.] | < 5 nM
Nc1ncnc2c1c(-c1ccc(Oc3ccccc3)cc1)nn2C[C@H]1SSC[C@H]1O [46 B.] | < 5 nM

Please examine the following record next.
Q: Tell me the measured IC50 of Nc1ncnc2c1c(-c1ccc(Oc3ccccc3)cc1)nn2C[C@H]1SSC[C@@H]1O [43 B.] , please.
A: < 5 nM

----------
In this section we review reported IC50 values for a set of compounds.
Molecular target: FYN (Homo sapiens (Human), UniProt P06241)
Sequence (P06241 whole entry): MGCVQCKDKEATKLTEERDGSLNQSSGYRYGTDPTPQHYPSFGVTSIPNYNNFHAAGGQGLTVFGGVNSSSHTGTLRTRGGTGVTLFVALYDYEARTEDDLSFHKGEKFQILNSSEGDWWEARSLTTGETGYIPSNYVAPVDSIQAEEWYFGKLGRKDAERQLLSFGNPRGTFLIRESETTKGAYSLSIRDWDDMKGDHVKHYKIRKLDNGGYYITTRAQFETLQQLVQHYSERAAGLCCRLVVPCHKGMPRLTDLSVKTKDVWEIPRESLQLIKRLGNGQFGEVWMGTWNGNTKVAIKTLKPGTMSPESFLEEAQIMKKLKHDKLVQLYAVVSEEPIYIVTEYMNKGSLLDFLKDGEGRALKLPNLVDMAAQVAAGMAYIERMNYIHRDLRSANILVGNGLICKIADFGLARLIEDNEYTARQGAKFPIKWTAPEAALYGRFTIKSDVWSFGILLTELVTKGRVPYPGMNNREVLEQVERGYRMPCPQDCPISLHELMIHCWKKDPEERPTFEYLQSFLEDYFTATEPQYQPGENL
Experiment: Radioisotope filter binding assay
Type: biochemical
Conditions: read-out: IC50 Activity Levels Against SRC Family Kinases: FYN

Worked examples, 2 compounds total:
CO[C@@H]1CSS[C@H]1Cn1nc(-c2ccc(Oc3ccccc3)cc2)c2c(N)ncnc21 (relative stereo) | 5 to 99 nM
Nc1ncnc2c1c(-c1ccc(Oc3ccccc3F)cc1)nn2CC1SSCC1OC(=O)c1ccccc1 (centres unmarked) | 5 to 99 nM

Q: Tell me the measured IC50 of Nc1ncnc2c1c(-c1ccc(Oc3ccccc3F)cc1)nn2CC1SSCC1O (centres unmarked) , please.
A: 5 to 99 nM

Q: Tell me the measured IC50 of Nc1ncnc2c1c(-c1ccc(Oc3ccccc3)cc1)nn2C[C@@H]1SSC[C@@H]1OCc1ccccc1 (relative stereo) , please.
A: 1000 to 10000 nM

Q: Tell me the measured IC50 of Nc1ncnc2c1c(-c1ccc(Oc3ccccc3)cc1)nn2C[C@H]1SSC[C@H]1O , please.
A: < 5 nM

Q: Tell me the measured IC50 of Nc1ncnc2c1c(-c1ccc(Oc3ccccc3)cc1)nn2C[C@@H]1SSC[C@H]1O , please.
A: < 5 nM

Q: Tell me the measured IC50 of Nc1ncnc2c1c(-c1ccc(Oc3ccccc3)cc1)nn2C[C@H]1SSC[C@@H]1O , please.
A: < 5 nM

Q: Tell me the measured IC50 of Nc1ncnc2c1c(-c1ccc(Oc3ccccc3)cc1)nn2C[C@@H]1SSC[C@@H]1O , please.
A: 5 to 99 nM

----------
Target: CRAP (Homo sapiens (Human))
test_readout: IC50

Q: Checklist item: IC50 tested on CRAP (Homo sapiens (Human)), entry Nc1ncnc2c1c(-c1ccc(Oc3ccccc3)cc1)nn2C[C@@H]1SSC[C@@H]1O , value?
A: 1 to 10 µM

----------
Target: SRC (Homo sapiens (Human))
Sequence (P12931 whole entry, looked up): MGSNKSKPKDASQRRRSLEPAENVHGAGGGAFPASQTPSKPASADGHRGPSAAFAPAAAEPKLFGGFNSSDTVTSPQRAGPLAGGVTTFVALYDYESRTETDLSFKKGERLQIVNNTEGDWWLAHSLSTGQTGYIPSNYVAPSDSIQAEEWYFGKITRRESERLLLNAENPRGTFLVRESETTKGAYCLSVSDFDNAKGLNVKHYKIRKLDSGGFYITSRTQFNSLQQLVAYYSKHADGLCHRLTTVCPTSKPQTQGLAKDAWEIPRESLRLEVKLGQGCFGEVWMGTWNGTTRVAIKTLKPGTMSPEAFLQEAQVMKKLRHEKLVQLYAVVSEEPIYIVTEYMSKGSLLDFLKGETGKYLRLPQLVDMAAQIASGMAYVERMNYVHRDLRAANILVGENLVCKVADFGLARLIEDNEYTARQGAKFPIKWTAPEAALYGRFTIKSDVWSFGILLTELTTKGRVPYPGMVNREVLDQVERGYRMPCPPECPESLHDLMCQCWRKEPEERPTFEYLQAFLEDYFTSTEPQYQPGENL
Test: Radioisotope filter binding assay
Format: biochemical
Settings: read-out: IC50 Activity Levels Against SRC Family Kinases: SRC
Procedure: 3. Radioisotope Filter Binding Assay: In this assay format, it directly detects the true product without the use of modified substrates or coupling enzymes (Uitdehaag, J. C., et al. Br. J. Pharmacol. 2012, 166, 858-876; Hastie, C. J., et al. Nat. Protoc. 2006, 1, 968-971) according to equation 1. Substrate+[γ−^33P]−ATP→^33P-Substrate+ADP eq 1 The protocol calls for test compound of the invention to be incubated with kinase, substrate, cofactors, and radio-isotope-labeled ATP (^33P-gamma-ATP). […]
pIC50: −log10 of the molar value.
test_readout: pIC50

Worked examples, 2 compounds total:
Nc1ncnc2c1c(-c1ccc(Oc3ccccc3)cc1)nn2C[C@@H]1SSC[C@H]1O | 6.00 to 7.00
Nc1ncnc2c1c(-c1ccc(Oc3ccccc3)cc1)nn2C[C@H]1SSC[C@@H]1O | 7.00 to 8.30

Q: Tell me the measured pIC50 of Nc1ncnc2c1c(-c1ccc(Oc3ccccc3)cc1)nn2C[C@@H]1SSC[C@@H]1O , please.
A: 6.00 to 7.00

Q: Tell me the measured pIC50 of Nc1ncnc2c1c(-c1ccc(Oc3ccccc3)cc1)nn2C[C@H]1SSC[C@H]1O , please.
A: 7.00 to 8.30

Where do the numbers come from? From patent US10844038B2.
